All figures here come from patent US8846951B2.

Molecular target: 5HT2C receptors (Homo sapiens, UniProt P28335)
Sequence (P28335 33-458): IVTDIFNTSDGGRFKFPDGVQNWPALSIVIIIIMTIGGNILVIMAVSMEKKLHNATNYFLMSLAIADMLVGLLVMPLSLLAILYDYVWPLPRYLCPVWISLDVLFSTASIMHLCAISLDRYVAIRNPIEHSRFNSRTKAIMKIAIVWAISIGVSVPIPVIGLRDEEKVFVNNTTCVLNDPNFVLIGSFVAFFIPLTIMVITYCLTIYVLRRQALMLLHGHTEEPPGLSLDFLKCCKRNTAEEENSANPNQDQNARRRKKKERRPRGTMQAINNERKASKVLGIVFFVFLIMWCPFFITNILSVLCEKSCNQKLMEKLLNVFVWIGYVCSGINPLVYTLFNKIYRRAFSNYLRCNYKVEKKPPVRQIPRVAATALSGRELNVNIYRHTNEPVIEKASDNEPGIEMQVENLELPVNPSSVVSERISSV
Assay: Human 5-HT2C functional high throughput screening assay in CHO-K1 cells (calcium flux)
Type: cell-based
Set-up: expressed in transfected cells; host or cells: CHO-K1 cells
Details: CHO-K1; 5-HT2C; maximum functional response as percentage relative to the effect of serotonin; read-out: Emax
Recorded measurements of Emax, one per entry
QUANTITY_MEASURED: Emax

MOLECULE	QUANTITY_MEASURED	VAL
CC(C)c1cccc(-c2ccc3c(c2)C(=O)NC[C@@H]2CN(C)C[C@@H]32)c1 (relative stereo)	Emax	100%
CN1C[C@H]2CNC(=O)c3cc(C(=O)NCCc4cccc(C(F)(F)F)c4)ccc3[C@@H]2C1 (relative stereo)	Emax	80%
O=S(=O)(c1ccccc1OC(F)(F)F)N1Cc2cccnc2[C@@H]2CNC[C@H]2C1 (relative stereo)	Emax	85%
O=C1NC[C@@H]2CNC[C@H]2c2cc3ccccc3cc21 (relative stereo)	Emax	120%
CN(C)C(=O)c1cccc(-c2ccc3c(c2)C(=O)NC[C@@H]2CNC[C@@H]32)c1 (relative stereo)	Emax	> 120%
CC(=O)c1cccc(-c2ccc3c(c2)C(=O)N(C)C[C@@H]2CN(C)C[C@@H]32)c1 (relative stereo)	Emax	110%
CN1C[C@H]2CNC(=O)c3cc(-c4ccc(F)c(F)c4)ccc3[C@@H]2C1 (relative stereo)	Emax	> 120%
CN1C[C@H]2CNC(=O)c3cc(-c4cccc(OC(F)(F)F)c4)ccc3[C@@H]2C1 (relative stereo)	Emax	> 120%
CN1C[C@H]2CNC(=O)c3c(-c4ccccc4)cccc3[C@@H]2C1 (relative stereo)	Emax	80%
CC(=O)c1cccc(-c2ccc3c(c2)C(=O)N(C)C[C@@H]2CNC[C@@H]32)c1 (relative stereo)	Emax	> 120%
CC(C)CC(O)c1cccc(-c2ccc3c(c2)C(=O)NC[C@H]2CN(C)C[C@H]32)c1 (some centres unmarked)	Emax	90%
CN1C[C@H]2CNC(=O)c3cc(C(=O)NCCc4ccccc4)ccc3[C@@H]2C1 (relative stereo)	Emax	60%
O=C1NC[C@@H]2CNC[C@H]2c2ccc(C3=CCOCC3)cc21 (relative stereo)	Emax	> 120%
CN1C[C@@H]2CNC(=O)c3cc(-c4cccc(S(C)(=O)=O)c4)ccc3[C@H]2C1	Emax	> 120%
CC(O)c1cccc(-c2cccc3c2OCC[C@H]2CNC[C@H]32)c1 (relative stereo)	Emax	90%
COC(=O)c1cccc(CN2C[C@H]3CNC(=O)c4ccccc4[C@@H]3C2)c1 (relative stereo)	Emax	120%
O=C1NC[C@@H]2CNC[C@H]2c2ccc(-c3ccc(F)cc3)cc21 [Example 221]	Emax	> 120%
CC(C)C(O)c1cccc(-c2ccc3c(c2)C(=O)NC[C@H]2CN(C)C[C@H]32)c1 (some centres unmarked)	Emax	100%
CCCC(O)c1cccc(-c2ccc3c(c2)C(=O)NC[C@H]2CN(C)C[C@H]32)c1 (some centres unmarked)	Emax	95%
CN1C[C@H]2CNC(=O)c3cc(-c4cccc(S(C)(=O)=O)c4)ccc3[C@@H]2C1 (relative stereo) [Example 84]	Emax	> 120%
CNC(=O)c1ccc2c(c1)C(=O)NC[C@@H]1CN(C)C[C@@H]21 (relative stereo)	Emax	90%
COc1cc(C)ccc1-c1ccc2c(c1)C(=O)NC[C@@H]1CN(C)C[C@@H]21 (relative stereo)	Emax	95%
COc1ccc(-c2ccc3c(c2)C(=O)NC[C@H]2CN(C)C[C@H]32)cc1Cl	Emax	90%
Fc1ccc(-c2cccc3c2OCC[C@H]2CNC[C@H]32)cc1 (relative stereo)	Emax	90%
Nc1ccc2c(c1)C(=O)NC[C@@H]1CN(Cc3ccccc3)C[C@H]21 (relative stereo)	Emax	80%
c1ccc(CN2C[C@H]3CCNc4ccccc4[C@@H]3C2)cc1 (relative stereo)	Emax	105%
CN1C[C@H]2CNC(=O)c3cc(Oc4ccc(F)cc4)ccc3[C@@H]2C1 (relative stereo)	Emax	> 120%
CC(=O)c1cccc(-c2cccc3c2OCC[C@H]2CNC[C@H]32)c1 (relative stereo)	Emax	90%
CN1C[C@H]2CNC(=O)c3cc(-c4cccc(C(C)(C)O)c4)ccc3[C@@H]2C1 (relative stereo)	Emax	> 120%

###

Attribute: EC50
target: UniProtKB P28335; assay: Human 5-HT2C functional high throughput screening assay in CHO-K1 cells (calcium flux); type: cell-based; design: expressed in transfected cells; host or cells: CHO-K1 cells; conditions: 5-HT2C agonist activity; CHO-K1 cells; calcium flux; read-out: EC50

COMPOUND	EC50, µM
CN1C[C@@H]2CNC(=O)c3cc(-c4cccc(S(C)(=O)=O)c4)ccc3[C@H]2C1	0.007
CN1C[C@H]2CNC(=O)c3cc(-c4ccccc4S(C)(=O)=O)ccc3[C@@H]2C1 (relative stereo)	3
O=C1NC[C@@H]2CNC[C@H]2c2ccc(C3CCOCC3)cc21 (relative stereo)	0.1
O=C1NC[C@@H]2CN(Cc3ccccc3)C[C@H]2c2ccc(OCCc3cccc(F)c3)cc21 (relative stereo)	0.1
CN1C[C@H]2CNC(=O)c3cc(-c4ccc(F)c(F)c4)ccc3[C@@H]2C1 (relative stereo)	0.0066
CC(=O)N1CC[C@@H]2CNC[C@H]2c2ccccc21 (relative stereo)	0.9
CN1C[C@H]2CNC(=O)c3cc(C(=O)NCCc4cccc(C(F)(F)F)c4)ccc3[C@@H]2C1 (relative stereo)	1

###

// values below are reported EC50
target: 5HT2B receptors (Homo sapiens, UniProt P41595); construct: expressed in transfected cells; host or cells: CHO-K1 cells; assay: Human 5-HT2B functional high throughput screening assay in CHO-K1 cells (calcium flux); assay type: cell-based; details: EC50, 5-HT2B agonist activity; CHO-K1 cells; calcium flux
Sequence (P41595 whole entry): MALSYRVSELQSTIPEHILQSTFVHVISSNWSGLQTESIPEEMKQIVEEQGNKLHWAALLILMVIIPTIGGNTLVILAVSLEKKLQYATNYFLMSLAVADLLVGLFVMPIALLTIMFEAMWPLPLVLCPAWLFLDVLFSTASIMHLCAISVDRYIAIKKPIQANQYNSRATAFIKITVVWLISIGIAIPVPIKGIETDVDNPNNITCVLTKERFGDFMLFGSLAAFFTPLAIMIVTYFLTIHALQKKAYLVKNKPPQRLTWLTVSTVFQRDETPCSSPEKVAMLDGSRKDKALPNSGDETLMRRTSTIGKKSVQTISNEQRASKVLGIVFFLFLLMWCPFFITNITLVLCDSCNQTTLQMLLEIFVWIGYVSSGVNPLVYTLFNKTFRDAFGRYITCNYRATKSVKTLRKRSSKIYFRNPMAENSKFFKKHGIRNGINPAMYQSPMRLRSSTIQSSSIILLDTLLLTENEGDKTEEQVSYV

COMPOUND	EC50
CC1(C)CCC(Oc2ccc3c(c2)C(=O)NC[C@@H]2CNC[C@@H]32)CC1 (relative stereo)	> 10 µM
c1cncc(-c2cccc3c2OCC[C@H]2CNC[C@H]32)c1 (relative stereo)	1 µM
O=C1NC[C@@H]2CNC[C@H]2c2ccc(F)cc21 (relative stereo)	0.7 µM
CN1C[C@@H]2CNC(=O)c3cc(F)cc(F)c3[C@H]2C1	0.1 µM
Fc1ccc(COc2cccc3c2OCC[C@H]2CNC[C@H]32)cc1 (relative stereo)	0.003 µM
CN1C[C@@H]2CCOc3ccc(Cl)cc3[C@H]2C1	0.01 µM
CC(C)COc1ccc2c(c1)C(=O)NC[C@H]1CNC[C@H]21	> 10 µM
CN1C[C@H]2CNC(=O)c3cccc(F)c3[C@@H]2C1 (relative stereo)	0.56 µM
CCC(C)Oc1ccc2c(c1)C(=O)NC[C@@H]1CNC[C@@H]21 (relative stereo)	> 10 µM
Fc1cccc2c1OCC[C@H]1CNC[C@H]21 (relative stereo)	0.1 µM
CN1C[C@H]2CCN(C)c3ccccc3[C@@H]2C1 (relative stereo)	0.3 µM
Fc1ccc(F)c2c1OCC[C@H]1CNC[C@@H]21 (relative stereo)	0.7 µM
O=C1NC[C@@H]2CN(Cc3ccccc3)C[C@H]2c2ncccc21 (relative stereo)	> 10 µM
CN1C[C@H]2CNC[C@@H]2c2ccc(F)cc2C1=O	2 µM

###

molecular target: 5HT2B receptors (Homo sapiens); construct: expressed in transfected cells; host or cells: CHO-K1 cells; experiment: Human 5-HT2B functional high throughput screening assay in CHO-K1 cells (calcium flux); assay type: cell-based; details: 5-HT2B agonist activity; CHO-K1 cells; calcium flux; read-out: EC50
QUANTITY_MEASURED: EC50

COMPOUND	QUANTITY_MEASURED	VAL
c1cnc2c(c1)C1CNCC1CCO2 (mixture of isomers)	EC50	3 µM
O=S(=O)(c1ccc(OC(F)F)cc1)N1Cc2cccnc2[C@@H]2CNC[C@H]2C1 (relative stereo)	EC50	0.9 µM
CCS(=O)(=O)c1cccc(-c2ccc3c(c2)C(=O)NC[C@@H]2CN(C)C[C@@H]32)c1 (relative stereo)	EC50	> 10 µM
CN1C[C@H]2CNC(=O)c3cc(C=Cc4ccccc4)ccc3[C@@H]2C1 (relative stereo)	EC50	> 10 µM
CN1C[C@H]2CNC(=O)c3c(-c4ccccc4)cccc3[C@@H]2C1 (relative stereo)	EC50	> 10 µM
CN1C[C@H]2CNC(=O)c3cc(-c4ccc5c(c4)CCO5)ccc3[C@@H]2C1 (relative stereo)	EC50	> 10 µM
O=C1NC[C@@H]2CNC[C@H]2c2ccc(-c3cccc(CCO)c3)cc21 (relative stereo)	EC50	> 10 µM
